Measured kon, listed per entry.
- measurementTarget: T1, human GITR-Fc (Enzo Life Sciences, ALX-522-061-C050) (human, UniProt Q9Y5U5 26-162)
- T1 construct: Bought protein; not shown: Fc part of the bought fusion protein; not described
- T1 sequence: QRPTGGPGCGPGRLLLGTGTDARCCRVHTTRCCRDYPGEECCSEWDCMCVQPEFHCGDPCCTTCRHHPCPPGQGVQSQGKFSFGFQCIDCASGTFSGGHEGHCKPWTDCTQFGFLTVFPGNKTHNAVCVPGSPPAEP
- testName: ProteOn XPR36; human GITR-Fc amine-coupled on GLC chip, Nanobody injected at 6 concentrations
Write the value in M⁻¹ s⁻¹ as a bare number.

binder | outputUnit | kon
A0231052E08 (VHH, Monovalent Nanobody expressed in E. coli with a triple Flag, HIS6 tag; also called A0231PMP052E08; PA0231PMP052E08.1; not shown: C-terminal triple FLAG and HIS6 tag) VHH: EVQLVESGGGLVQAGGSLRLSCTGSRSIFSTYAMAWHRQAPGKQRELVGFIYWGGTTTYSDSVKGRFTISRDNAKNTMYLQMNSLKPEDAGVYYCNIYGSYALPWGQGTLVTVSS | M⁻¹ s⁻¹ | 750000
A0231033B02 (VHH, Monovalent Nanobody expressed in E. coli with a triple Flag, HIS6 tag; also called A0231PMP033B02; PA0231PMP033B02.1; not shown: C-terminal triple FLAG and HIS6 tag) VHH: EVQLVESGGGLVQPGGSLRLSCAASGTIFSISTMGWYRQAPGKQREVVAVTSGFSTNYSSAVKGRFTLSRDPAKNTVFLQMNSLQPEDTATYYCNAYLSLAWRDPDRDYWGQGTQVTVSS | M⁻¹ s⁻¹ | 490000
A0231004B01 (VHH, Monovalent Nanobody expressed in E. coli with a triple Flag, HIS6 tag; also called A0231PMP004B01; PA0231PMP004B01.1; not shown: C-terminal triple FLAG and HIS6 tag) VHH: EVQLVESGGGLVQPGGSLRLSCAASGSIFSIDSMGWYRQAPGKQRELVAAITSSTNYADSVKGRFTISRDNAKNTVYLQMNSLKPEDTAVYYCNLEGQAGWGTALINYWGKGTLVTVSS | M⁻¹ s⁻¹ | 1.1e+06

Now let's try a different one.
Data request: Value lookup for kon; key = A0231034A08 (VHH, Monovalent Nanobody expressed in E. coli with a triple Flag, HIS6 tag; also called A0231PMP034A08; PA0231PMP034A08.1; not shown: C-terminal triple FLAG and HIS6 tag) VHH: EVQLVESGGDLVQPGGSLRLSCAASGSVFSINDMGWFRQAPGKQRELVADIISRGVTNYADSVKGRFTISGDPAKNTVYLQMNSLKPEDTAVYYCNAHISTGWGRPHNNYWGQGTQVTVSS
Data returned: 270000
